Values from patent US4048161A

Items are presented alongside their recorded MIC.
tested on: Salmonella heidelberg
Metric: MIC

compound="Cn1c(SCC2=C(C(=O)O)N3C(=O)C(NC(=O)C(NC(=O)c4nc5ccccc5[nH]4)c4ccc(O)cc4)C3SC2)nnc(O)c1=O (stereo not drawn) [G]" system="Salmonella heidelberg" value_observed="8.5 µg/mL"
compound="Cc1nnc(SCC2=C(C(=O)O)N3C(=O)C(NC(=O)C(NC(=O)c4nc5ccccc5[nH]4)c4ccc(O)cc4)C3SC2)s1 (stereo not drawn) [E]" system="Salmonella heidelberg" value_observed="16 µg/mL"
compound="Cn1nnnc1SCC1=C(C(=O)O)N2C(=O)C(NC(=O)C(NC(=O)c3nc4ccccc4[nH]3)c3ccc(O)cc3)C2SC1 (stereo not drawn) [C]" system="Salmonella heidelberg" value_observed="8 µg/mL"
